- Tested on: Ba/F3 cells expressing EGFR T790M/del19 mutation kinase
- assay: Inhibition of EGFR T790M/del19 mutation kinase-dependent cell proliferation (Cell Titer-Glo)
- Type: cell-based
- details: Mus musculus, BaF3, 48 h; Ba/F3 cells expressing EGFR T790M/del19, cultured 2 days
endpoint: pIC50
Remember the convention: pIC50 equals -log10 of concentration in molar.

Some compounds with recorded pIC50:
C=CC(=O)Nc1cccc(Oc2nc(Nc3ccc(OC)c(N4CCN(C)CC4)c3)c(C(N)=O)nc2CC)c1    8.89
C=CC(=O)N1CCC(c2nc(Nc3ccc(N4CCC(N5CCN(C)CC5)CC4)c(C)c3)c(C(N)=O)nc2CC)CC1    9.32
C=CC(=O)Nc1cccc(Oc2nc(Nc3cnn(C4CCN(C)CC4)c3)c(C(N)=O)nc2C(C)C)c1    8.80

Q: pIC50 for C=CC(=O)Nc1cccc(Oc2cnc(C(N)=O)c(Nc3ccc(N4CCN(C)CC4)cc3)n2)c1 ?
A: 9.28

* * *

Listed here: items and their measured IC50.
- System: Ba/F3 cells expressing EGFR T790M/del19 mutation kinase
- assay: Inhibition of EGFR T790M/del19 mutation kinase-dependent cell proliferation (Cell Titer-Glo)
- Type: cell-based
- details: Mus musculus, BaF3, 48 h; Ba/F3 cells expressing EGFR T790M/del19, cultured 2 days
Field format: number, assumed nM, no unit text.

Some compounds with recorded IC50:
C=CC(=O)Nc1cccc(Oc2nc(Nc3ccc(N4CCN(C)[C@@H](C)C4)cc3)c(C(N)=O)nc2CC)c1    0.66
C=CC(=O)N1CC[C@@H](Oc2nc(Nc3ccc(N4CCC(N5CCN(C)CC5)CC4)cc3)c(C(N)=O)nc2CC)C1    3.2

We next turn to a different compound, shown below.
Q: Give the reported IC50 for C=CC(=O)Nc1cccc(Oc2nc(Nc3ccc(N4CCN(C)CC4)cc3)c(C(N)=O)nc2CC)c1 (system: Ba/F3 cells expressing EGFR T790M/del19 mutation kinase).
A: 1.4

* * *

- subject-of-test: EGFR [T790M/L858R] (Homo sapiens (Human), UniProt P00533, L858R/T790M)
- Sequence (P00533 25-1210 T790M/L858R): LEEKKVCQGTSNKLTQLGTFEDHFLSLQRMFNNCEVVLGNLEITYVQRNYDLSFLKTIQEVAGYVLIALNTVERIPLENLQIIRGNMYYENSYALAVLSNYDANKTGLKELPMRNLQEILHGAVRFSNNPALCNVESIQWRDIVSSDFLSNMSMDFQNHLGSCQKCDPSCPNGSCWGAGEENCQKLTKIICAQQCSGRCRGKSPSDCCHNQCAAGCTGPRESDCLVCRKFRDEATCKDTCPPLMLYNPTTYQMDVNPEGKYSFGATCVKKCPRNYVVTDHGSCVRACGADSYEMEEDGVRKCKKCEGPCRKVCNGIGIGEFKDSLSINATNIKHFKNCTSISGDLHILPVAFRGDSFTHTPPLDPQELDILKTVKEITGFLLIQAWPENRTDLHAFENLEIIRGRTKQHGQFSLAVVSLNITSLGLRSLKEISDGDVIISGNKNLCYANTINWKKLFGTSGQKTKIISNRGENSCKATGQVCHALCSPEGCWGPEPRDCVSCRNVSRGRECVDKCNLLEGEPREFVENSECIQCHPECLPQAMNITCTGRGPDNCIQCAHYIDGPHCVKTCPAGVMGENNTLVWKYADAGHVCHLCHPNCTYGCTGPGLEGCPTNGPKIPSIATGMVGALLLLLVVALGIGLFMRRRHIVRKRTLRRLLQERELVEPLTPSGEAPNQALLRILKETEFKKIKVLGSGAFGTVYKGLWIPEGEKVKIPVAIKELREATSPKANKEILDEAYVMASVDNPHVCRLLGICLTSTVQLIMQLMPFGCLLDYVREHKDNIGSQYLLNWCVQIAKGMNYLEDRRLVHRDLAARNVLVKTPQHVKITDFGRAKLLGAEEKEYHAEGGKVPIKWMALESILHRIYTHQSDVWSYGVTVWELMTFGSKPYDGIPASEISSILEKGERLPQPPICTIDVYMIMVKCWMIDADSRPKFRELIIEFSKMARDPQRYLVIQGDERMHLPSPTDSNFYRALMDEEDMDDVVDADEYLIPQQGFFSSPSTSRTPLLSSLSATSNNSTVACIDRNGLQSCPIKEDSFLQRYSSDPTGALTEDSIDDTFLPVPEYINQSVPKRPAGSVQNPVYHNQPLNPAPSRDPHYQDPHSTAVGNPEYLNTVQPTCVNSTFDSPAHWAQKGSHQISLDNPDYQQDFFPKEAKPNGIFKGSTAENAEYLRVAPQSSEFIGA
- assay: Inhibitory activity on EGFR T790M/L858R mutation kinase (LabChip peptide substrate phosphorylation)
- details: EGFR [T790M/L858R] enzyme, 2 hours preincubation, ATP 1000 μM
endpoint: IC50 (nM)
Field format: number, assumed nM, no unit text.

Some molecules with recorded IC50:
C=CC(=O)Nc1ccc(F)c(Oc2nc(Nc3ccc(N4CCN(C)CC4)cc3)c(C(N)=O)nc2CC)c1 [Example 82]    1.5
C=CC(=O)N1CCC[C@@H](Oc2nc(Nc3ccc(N4CCC(N5CCN(C)CC5)CC4)cc3)c(C(N)=O)nc2CC)C1 [Example 79]    1.3
C=CC(=O)Nc1cccc(Oc2nc(Nc3ccc(OC)c(N4CCN(C)CC4)c3)c(C(N)=O)nc2CC)c1 [Example 42]    1.2

Q: IC50 for C=CC(=O)Nc1cccc(Oc2nc(Nc3cnn(C4CCN(C)CC4)c3)c(C(N)=O)nc2C(C)C)c1 [Example 56] ?
A: 1.3

Q: Same question for C=CC(=O)Nc1cccc(Oc2nc(Nc3ccc(N4CCN(C)CC4)cc3)c(C(N)=O)nc2CC)c1C [Example 15] please.
A: 1.2

Q: Same question for C=CC(=O)Nc1cccc(Oc2cnc(C(N)=O)c(Nc3ccc(N4CCN(C)CC4)cc3)n2)c1 [Example 26] please.
A: 1.1

* * *

Listed here: items and their measured IC50.
- Tested on: Ba/F3 cells expressing EGFR T790M/del19 mutation kinase
- assay: Inhibition of EGFR T790M/del19 mutation kinase-dependent cell proliferation (Cell Titer-Glo)
- Type: cell-based
- details: Mus musculus, BaF3, 48 h; Ba/F3 cells expressing EGFR T790M/del19, cultured 2 days
Field format: number, assumed nM, no unit text.

C=CC(=O)Nc1cccc(Oc2nc(Nc3ccc(N4CCN(C)CC4)cc3)c(C(N)=O)nc2CC)c1C    0.77

Q: IC50 for CCc1nc(C(N)=O)c(Nc2ccc(N3CCN(C)CC3)cc2)nc1Oc1cccc(NC(=O)/C=C/CN(C)C)c1 ?
A: 8.8

Q: Same question for C=CC(=O)Nc1cccc(Oc2nc(Nc3ccc(N4CCN(C)[C@H](C)C4)cc3)c(C(N)=O)nc2CC)c1 please.
A: 0.42

Q: Same question for C=CC(=O)Nc1cccc(Oc2nc(Nc3ccc(N4CCN(CC)CC4)cc3)c(C(N)=O)nc2CC)c1 please.
A: 0.51

* * *

- subject-of-test: EGFR [T790M/L858R] (Homo sapiens (Human), UniProt P00533, L858R/T790M)
- assay: Inhibitory activity on EGFR T790M/L858R mutation kinase (LabChip peptide substrate phosphorylation)
- details: EGFR [T790M/L858R] enzyme, 2 hours preincubation, ATP 1000 μM
endpoint: pIC50
Remember the convention: pIC50 equals -log10 of concentration in molar.

Q: pIC50 for CCc1nc(C(N)=O)c(Nc2ccc(N3CCN(C)CC3)cc2)nc1Oc1cccc(NC(=O)/C=C/CN(C)C)c1 ?
A: 8.85

Q: Same question for C=CC(=O)N1CCC[C@@H](Oc2nc(Nc3ccc(N4CCC(N5CCN(C)CC5)CC4)c(C)c3)c(C(N)=O)nc2CC)C1 please.
A: 8.92

Q: Same question for C=CC(=O)N1CC[C@@H](Oc2nc(Nc3ccc(N4CCC(N5CCN(C)CC5)CC4)cc3)c(C(N)=O)nc2CC)C1 please.
A: 8.77

Q: Same question for C=CC(=O)Nc1cccc(Oc2nc(Nc3ccc(N4CCN(C)CC4)cc3)c(C(N)=O)nc2CC)c1 please.
A: 8.89

* * *

Listed here: items and their measured pIC50.
- System: Ba/F3 cells expressing EGFR T790M/L858R mutation kinase
- assay: Inhibition of EGFR T790M/L858R mutation kinase-dependent cell proliferation (Cell Titer-Glo)
- Format: cell-based
- details: Mus musculus, BaF3, 48 h, cultured 2 days
- Experimental: In a 96-well plate (Iwaki), Ba/F3 cells were seeded at 500 cells per well in an RPMI1640 medium (Invitrogen) containing 10% fetal bovine serum, followed by the addition of the test compound (final concentrations ranging from 1 μM to 0.1 nM) and DMSO which was a solvent of the test compound as a negative control. […] A cell counting reagent (Cell Titer-Glo; Promega) was added thereto, and the light emitting intensity was measured using a luminometer (Envison or ARVO; PerkinElmer Inc.). […]
Remember the convention: pIC50 equals -log10 of concentration in molar.

Some compounds with recorded pIC50:
C=CC(=O)Nc1cccc(Oc2nc(Nc3ccc(N4CCN(C)CC4)cc3)c(C(N)=O)nc2CC)c1 [Example 1]    8.66
C=CC(=O)Nc1cccc(Oc2nc(Nc3ccc(N4CCN(C)CC4)cc3)c(C(N)=O)nc2CC)c1C [Example 15]    8.96
C=CC(=O)Nc1cccc(Oc2cnc(C(N)=O)c(Nc3ccc(N4CCN(C)CC4)cc3)n2)c1 [Example 26]    9.04
C=CC(=O)Nc1cccc(Oc2nc(Nc3ccc(OC)c(N4CCN(C)CC4)c3)c(C(N)=O)nc2CC)c1 [Example 42]    8.85
CCc1nc(C(N)=O)c(Nc2ccc(N3CCN(C)CC3)cc2)nc1Oc1cccc(NC(=O)/C=C/CN(C)C)c1 [Example 3]    7.77
C=CC(=O)Nc1cccc(Oc2nc(Nc3cnn(C4CCN(C)CC4)c3)c(C(N)=O)nc2C(C)C)c1 [Example 56]    8.70

We next turn to a different compound, shown below.
Q: pIC50 for C=CC(=O)N1CC[C@@H](Oc2nc(Nc3ccc(N4CCC(N5CCN(C)CC5)CC4)cc3)c(C(N)=O)nc2CC)C1 [Example 54] ?
A: 8.35
